system: BaF3-TEL-IGF1R
Exercise: state measured GI50 for each of the molecules provided.

Note to self: GI50 recorded for "C=CC(=O)Nc1cc(Nc2ncc(Cl)c(Nc3ccccc3C(=O)NC)n2)c(OC)cc1N1CCN(CC)CC1" was 2 nM

The reported GI50 of the molecule "C=CC(=O)Nc1cc(Nc2ncc(Cl)c(Nc3ccccc3C(=O)NC)n2)c(OC)cc1N1CCN(C(C)=O)CC1" was 41 nM

GI50 in this record for "C=CC(=O)Nc1cc(Nc2ncc(Cl)c(Nc3ccccc3C(=O)NC)n2)c(OC)cc1N1CCN(C)CC1" : 14 nM

The molecule listed as "C=CC(=O)Nc1cc(Nc2ncc(Cl)c(Nc3ccccc3C(=O)NC)n2)c(OC)cc1N1CCC(N2CCOCC2)CC1" has a reported GI50 of 7.7 nM

----------
Provide the recorded log10(GI50) for the entries that follow.
tested on: A431; assay: Growth of cancer cells (Cell Titer-Glo viability), A431; format: cell-based; conditions: Homo sapiens, A-431; A431 (wild-type EGFR), 72 hrs; read-out: GI50
All values: base-10 log of GI50 in nM.

Measured log10(GI50) of "C=CC(=O)Nc1cc(Nc2ncc(Cl)c(Nc3ccccc3S(=O)(=O)C(C)C)n2)c(OC)cc1N1CCN(CC)CC1" : 1.79

Form field log10(GI50), entry "C=CC(=O)Nc1cc(Nc2ncc(Cl)c(Nc3ccccc3S(=O)(=O)C(C)C)n2)c(OC)cc1N1CCN(CC2CC2)CC1" : 2.54

In plain terms, "C=CC(=O)Nc1cc(Nc2ncc(Cl)c(Nc3ccccc3S(=O)(=O)N(C)C)n2)c(OC)cc1N1CCN(C)CC1" has a documented log10(GI50) of 2.34

get_value(item= "C=CC(=O)Nc1cc(Nc2ncc(Cl)c(Nc3ccccc3S(=O)(=O)C(C)C)n2)c(OC)cc1N1CCN[C@H](C)C1" , readout=log10(GI50)) returns 1.85

Item: "C=CC(=O)Nc1cc(Nc2ncc(Cl)c(Nc3ccccc3S(=O)(=O)C(C)C)n2)c(OC)cc1N1CCN(C(C)C)CC1" | log10(GI50): 2.15

Record "C=CC(=O)Nc1cc(Nc2ncc(Cl)c(Nc3ccccc3S(=O)(=O)C(C)C)n2)c(OC)cc1N1CCN(Cc2ccccc2)CC1" , field log10(GI50): 3.62

Recorded result, "C=CC(=O)Nc1cc(Nc2ncc(Cl)c(Nc3ccccc3S(=O)(=O)C(C)C)n2)c(OC)cc1N1CCCCC1" , log10(GI50): 2.73

----------
test system: BaF3-TEL-EGFR-T790M; test: Cell growth (Cell Titer-Glo viability), BaF3-TEL-EGFR-T790M; type: cell-based; settings: Mus musculus; BaF3-TEL-EGFR-T790M (EGFR T790M mutant kinase), 72 hrs
observable: GI50 (µM)
Give just the number in µM; leave the unit off.

Record "C=CC(=O)Nc1cc(Nc2ncc(Cl)c(Nc3ccccc3S(=O)(=O)C(C)C)n2)c(OC)cc1N1CCCCC1" , field GI50: 0.018

# compound C=CC(=O)Nc1cccc(Oc2nc(Nc3ccc(N4CCN(C)CC4)cc3OC)ncc2Cl)c1 [WZ4002, reference compound] ; its GI50 = 0.046

Entry "C=CC(=O)Nc1cc(Nc2ncc(C)c(Nc3ccccc3S(=O)(=O)C(C)C)n2)c(OC)cc1N1CCC(N2CCN(C)CC2)CC1" — recorded GI50 = 0.1

Record "C=CC(=O)Nc1cc(Nc2ncc(Cl)c(Nc3ccccc3C(=O)NC)n2)c(OC)cc1N1CCC(N2CCOCC2)CC1" . Reported GI50: 0.028

Documented GI50 of "C=CC(=O)Nc1cc(Nc2ncc(Cl)c(Nc3ccc(F)c(Cl)c3)n2)c(OC)cc1N1CCN(C)CC1" : 0.035

# GI50 (compound: "C=CC(=O)Nc1cc(Nc2ncc(Cl)c(Nc3ccccc3S(=O)(=O)C(C)C)n2)c(OC)cc1N1CCN(S(C)(=O)=O)CC1" ) is 0.053

Reported GI50 of "C=CC(=O)Nc1cc(Nc2ncc(Cl)c(Nc3ccccc3C(=O)NC)n2)c(OC)cc1N1CCN(C(C)=O)CC1" : 0.25

Recorded GI50 (compound "C=CC(=O)Nc1cc(Nc2ncc(Cl)c(Nc3ccccc3S(=O)(=O)C(C)C)n2)c(OC)cc1N1CCNCC1" ): 0.062

So for "C=CC(=O)Nc1cc(Nc2ncc(Cl)c(Nc3ccccc3S(=O)(=O)N(C)C)n2)c(OC)cc1N1CCN(C)CC1" , the logged GI50 turned out to be 0.01

Noted for "C=CC(=O)Nc1cc(Nc2ncc(Cl)c(Nc3ccccc3S(=O)(=O)C(C)C)n2)c(OC)cc1N1CCN(CC)CC1" : its GI50 reads 0.032

get_value(item= "C=CC(=O)Nc1cc(Nc2ncc(Cl)c(Nc3ccccc3S(=O)(=O)C(C)C)n2)c(OC)cc1N1CCN(C(=O)OC(C)(C)C)CC1" , readout=GI50) returns 0.29

// field: GI50; key: "C=CC(=O)Nc1cc(Nc2ncc(Cl)c(Nc3ccccc3S(=O)(=O)C(C)C)n2)c(OC)cc1N1CCN(CCF)CC1" ; value = 0.047

Consider "C=CC(=O)Nc1cc(Nc2ncc(Cl)c(Nc3ccccc3C(=O)NC)n2)c(OC)cc1N1CCN(CC)CC1" . Its measured GI50 is 0.03

The value of GI50 measured for the compound COc1cc(N2CCC(N3CCN(C)CC3)CC2)ccc1Nc1ncc(Cl)c(Nc2ccccc2S(=O)(=O)C(C)C)n1 [TAE-684, reference compound] turned out to be 0.42

Quick note, GI50 for "C=CC(=O)Nc1cc(Nc2ncc(Cl)c(Nc3ccccc3C(=O)NC)n2)c(OC)cc1N1CCN(C)CC1" landed at 0.028

The reported GI50 of the compound "C=CC(=O)Nc1cc(Nc2ncc(Cl)c(Nc3ccccc3S(=O)(=O)C(C)C)n2)c(OC)cc1N1CCN(C)CC1" was 0.012

Given item "CCC(=O)Nc1cc(Nc2ncc(Cl)c(Nc3ccccc3S(=O)(=O)C(C)C)n2)c(OC)cc1N1CCC(N2CCN(C)CC2)CC1" , the value recorded as its GI50 is 0.23

The reported value for "C=CC(=O)Nc1cc(Nc2ncc(Cl)c(Nc3ccccc3S(=O)(=O)C(C)C)n2)c(OC)cc1N1CCC(N2CCN(C)CC2)CC1" in terms of GI50 is 0.046

GI50 for "C=CC(=O)Nc1cc(Nc2ncc(Cl)c(Nc3cccc(C(F)(F)F)c3)n2)c(OC)cc1N1CCN(C)CC1" is 0.08
